test system: 186277-243-T-J2-PDC complex spheroid viability; experiment: Anticancer human tumor 186277-243-T-J2-PDC patient-derived colon adenocarcinoma cell line growth inhibition [GQUAD]; conditions: second compound 10 µM; first compound 1 µM; active compounds read low;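 note: spheroids exposed to drugs for 7 days; 100% = DMSO vehicle control viability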

{"columns": ["compound", "viability, T/C, %"],
 "data": [
  ["O=c1[nH]cc(F)c(=O)[nH]1 + Cc1[nH]c2ccc(F)cc2c1-c1nc2c3cccnc3c3ncccc3c2[nH]1", 116],
  ["O=C(NO)c1cnc(N2CCN(S(=O)(=O)c3ccc4ccccc4c3)CC2)nc1 + Cc1[nH]c2ccc(F)cc2c1-c1nc2c3cccnc3c3ncccc3c2[nH]1", 0.52],
  ["CC(C)(O)C1CCC(Nc2ccc3ncc(-c4cccc(C(F)(F)F)c4)n3n2)CC1 (stereo not drawn) + Cc1cnc(CNC(=O)c2c(=O)c3ccc(N4CCCN(C)CC4)nc3n3c2sc2ccccc23)cn1", 39.7]
]}
